Taken from patent US20220267376A1.

Each entry below carries its recorded P53 activity EC50 (µM) (2% FBS) 16 H.
measurement-target: human MDM2 protein (amino acids 1-125) (Homo sapiens, UniProt Q00987)
Sequence (Q00987 1-125 limits assumed): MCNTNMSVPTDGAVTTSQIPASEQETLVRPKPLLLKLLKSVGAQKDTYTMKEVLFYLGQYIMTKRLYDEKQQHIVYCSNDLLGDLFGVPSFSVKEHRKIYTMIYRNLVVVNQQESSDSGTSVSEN
protocol-summary: cell-based or functional assay
Positions of bridges follow the written chain, without caps; N, C: chain ends. Non-standard residues stand in square brackets, D forms with d. No end group written: not given here. dPhe(4-CF3) = N[C@H](Cc1ccc(C(F)(F)F)cc1)C(=O)O; dTrp(6-F) = N[C@H](Cc1c[nH]c2cc(F)ccc12)C(=O)O; R8 = C=CCCCCCC[C@@](C)(N)C(=O)O; R5 = C=CCCC[C@@](C)(N)C(=O)O; S5 = C=CCCC[C@](C)(N)C(=O)O
Express your answer in µM, writing the number without its unit.

Some binders with known P53 activity EC50 (µM) (2% FBS) 16 H results, for comparison:
binder	P53 activity EC50 (µM) (2% FBS) 16 H
[R5][dA][dTrp(6-F)][dY][R5][dN][dPhe(4-CF3)][dE][S5][dL][dL][R8]-NH2 (staple 1-5, 9-12) [^DPMI-δ(1-5,9-12)]	34.6
XAXYXNXEKLLR (all alpha-amino acids have a D configuration; Xaa1 is R5 and Xaa5 is R5 ((R)-2-(4'-pentenyl)-alanine), joined by a hydrocarbon staple; Xaa3 is 6-F-Trp; Xaa7 is p-CF3-Phe; Xaa12 optionally has a C-terminal amide; Xaa1 optionally has a N-terminal acyl) [^DPMI-δ(1-5)]	13.7

Note: attention shifts to another entry.
Identify measured P53 activity EC50 (µM) (2% FBS) 16 H corresponding to XAXYXNXEKLLX (all alpha-amino acids have a D configuration; Xaa1 is R5 ((R)-2-(4'-pentenyl)-alanine), Xaa5 is B5 (2,2-(4'-pentenyl)-glycine), Xaa12 is R8 ((R)-2-(7'-octenyl)-alanine), joined by a hydrocarbon stitch 1-5 and 5-12 with residue 5 in common; Xaa3 is 6-F-Trp; Xaa7 is p-CF3-Phe; Xaa12 optionally has a C-terminal amide; Xaa1 optionally has a N-terminal acyl) [^DPMI-δ(1,5,12)]
4
